system.name: UniProt Q92508
Sequence (Q92508 whole entry): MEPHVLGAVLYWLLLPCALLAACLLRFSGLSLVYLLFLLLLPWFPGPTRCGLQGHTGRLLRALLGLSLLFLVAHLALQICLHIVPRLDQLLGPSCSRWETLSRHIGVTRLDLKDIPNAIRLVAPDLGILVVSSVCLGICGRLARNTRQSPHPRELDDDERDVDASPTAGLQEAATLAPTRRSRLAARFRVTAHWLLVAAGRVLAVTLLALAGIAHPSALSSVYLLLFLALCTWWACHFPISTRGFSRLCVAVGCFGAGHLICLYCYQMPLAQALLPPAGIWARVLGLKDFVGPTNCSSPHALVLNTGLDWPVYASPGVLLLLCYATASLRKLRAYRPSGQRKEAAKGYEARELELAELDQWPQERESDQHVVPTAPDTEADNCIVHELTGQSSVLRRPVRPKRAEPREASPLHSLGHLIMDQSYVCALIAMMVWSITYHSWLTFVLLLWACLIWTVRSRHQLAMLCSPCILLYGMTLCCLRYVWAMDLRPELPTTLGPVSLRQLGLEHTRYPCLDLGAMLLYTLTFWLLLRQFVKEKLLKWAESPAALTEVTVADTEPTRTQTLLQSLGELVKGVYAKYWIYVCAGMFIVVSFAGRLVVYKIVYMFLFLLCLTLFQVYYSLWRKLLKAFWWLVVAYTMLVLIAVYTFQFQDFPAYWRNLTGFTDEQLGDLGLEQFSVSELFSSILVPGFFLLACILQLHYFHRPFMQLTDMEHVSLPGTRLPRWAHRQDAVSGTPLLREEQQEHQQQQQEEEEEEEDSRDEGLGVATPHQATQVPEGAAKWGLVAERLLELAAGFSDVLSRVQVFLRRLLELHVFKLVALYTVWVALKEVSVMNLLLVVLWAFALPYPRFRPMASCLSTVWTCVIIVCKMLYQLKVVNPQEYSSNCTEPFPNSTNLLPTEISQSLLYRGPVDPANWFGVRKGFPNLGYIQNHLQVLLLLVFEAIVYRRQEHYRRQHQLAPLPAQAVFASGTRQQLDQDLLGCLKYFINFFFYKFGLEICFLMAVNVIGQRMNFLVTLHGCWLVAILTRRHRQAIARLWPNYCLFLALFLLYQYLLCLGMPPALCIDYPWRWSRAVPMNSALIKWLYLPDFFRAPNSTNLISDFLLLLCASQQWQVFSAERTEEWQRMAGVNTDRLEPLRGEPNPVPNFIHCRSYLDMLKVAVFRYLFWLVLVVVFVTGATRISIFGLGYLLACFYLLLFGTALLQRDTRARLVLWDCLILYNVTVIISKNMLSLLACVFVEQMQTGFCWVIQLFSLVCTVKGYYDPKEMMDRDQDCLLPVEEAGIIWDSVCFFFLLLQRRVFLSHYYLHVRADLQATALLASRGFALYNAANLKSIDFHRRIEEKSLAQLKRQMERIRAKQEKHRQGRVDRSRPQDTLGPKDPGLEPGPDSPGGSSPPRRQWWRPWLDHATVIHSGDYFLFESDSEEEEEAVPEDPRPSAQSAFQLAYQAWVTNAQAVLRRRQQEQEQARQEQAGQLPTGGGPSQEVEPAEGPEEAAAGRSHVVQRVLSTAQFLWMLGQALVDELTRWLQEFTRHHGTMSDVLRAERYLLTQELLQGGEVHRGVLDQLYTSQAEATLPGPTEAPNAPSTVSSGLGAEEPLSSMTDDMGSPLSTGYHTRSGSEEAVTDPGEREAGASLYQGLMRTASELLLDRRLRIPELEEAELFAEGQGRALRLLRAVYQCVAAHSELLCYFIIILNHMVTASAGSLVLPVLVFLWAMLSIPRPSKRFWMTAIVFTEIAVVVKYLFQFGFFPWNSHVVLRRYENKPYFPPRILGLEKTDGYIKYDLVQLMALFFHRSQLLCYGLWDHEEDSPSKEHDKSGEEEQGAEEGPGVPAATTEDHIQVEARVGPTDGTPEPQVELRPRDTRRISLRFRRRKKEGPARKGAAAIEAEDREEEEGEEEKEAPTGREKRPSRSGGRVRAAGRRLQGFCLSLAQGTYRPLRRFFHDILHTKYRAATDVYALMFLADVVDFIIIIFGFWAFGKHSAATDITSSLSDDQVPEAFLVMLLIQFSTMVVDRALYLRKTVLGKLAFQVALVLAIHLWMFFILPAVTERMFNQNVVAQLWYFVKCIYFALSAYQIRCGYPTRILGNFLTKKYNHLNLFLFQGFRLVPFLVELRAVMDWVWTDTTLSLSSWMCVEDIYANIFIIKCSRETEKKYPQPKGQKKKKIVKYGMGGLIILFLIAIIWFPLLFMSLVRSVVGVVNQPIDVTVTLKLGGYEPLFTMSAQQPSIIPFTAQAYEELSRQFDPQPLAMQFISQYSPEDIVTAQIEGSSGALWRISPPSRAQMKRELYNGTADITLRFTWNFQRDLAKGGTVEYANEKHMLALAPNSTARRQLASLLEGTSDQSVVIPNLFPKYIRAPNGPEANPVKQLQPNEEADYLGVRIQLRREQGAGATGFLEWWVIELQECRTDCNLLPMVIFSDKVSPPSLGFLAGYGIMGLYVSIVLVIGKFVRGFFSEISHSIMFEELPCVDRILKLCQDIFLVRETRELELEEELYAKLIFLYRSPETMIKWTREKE
experiment: Agonist activity at human PIEZO1 overexpressing HEK293-A cells co-expressing mCherry-piezo1 assessed as fold change in calcium influx at 1 uM by fluo-3 based real-time flow cytometric analysis
Format: cell-based
assay.metric: fold change (FC)

Solved cases below.
What does the data say about its fold change (FC)? Entry: FC(F)(F)c1ccc(Cl)cc1CSc1nnc(-c2cnccn2)o1
> 1.2

Entry Clc1cccc(Cl)c1CSc1nnc(-c2cnccn2)s1 : reported fold change (FC) = ?
> 1.2

Would you mind telling me what fold change (FC) value was observed for Clc1cccc(Cl)c1CSc1nnc(-c2ccc[nH]2)o1 ?
< 1.2

// query fold change (FC) value for entry FC(F)(F)c1cccc(Br)c1CSc1nnc(-c2cnccn2)o1
> 1.2

Recorded fold change (FC) of FC(F)(F)c1ccc(Cl)c(CSc2nnc(-c3cnccn3)o2)c1 , please.
> 1.2

More entries:
Give the measured fold change (FC) of FC(F)(F)c1ccc(Br)c(CSc2nnc(-c3cnccn3)o2)c1 .
> 1.2

Given the entry Clc1cccc(Cl)c1CNc1nnc(-c2cnccn2)o1 , report its measured fold change (FC).
< 1.2

Please report the recorded fold change (FC) for FC(F)(F)c1ccc(C(F)(F)F)c(CSc2nnc(-c3cnccn3)o2)c1 .
> 1.2

# lookup: fold change (FC) of O=c1oc(-c2cnccn2)nn1Cc1c(Cl)cccc1Cl
< 1.2
